Quick list: melting point per entry.

- structure notation: "C#CCn1c(=O)c2[nH]c(CCc3cccc(C(F)(F)F)c3)nc2n(CCCCP(=O)(O)O)c1=O"
  melting point: "223 to 226 °C"
- structure notation: "C#CCn1c(=O)c2[nH]c(CCc3ccccc3OC)nc2n(CCCCP(=O)(O)OCC)c1=O"
  melting point: "172 to 174 °C"
- structure notation: "C#CCn1c(=O)c2c(nc(CCc3c(Cl)cccc3Cl)n2CC)n(CCCCP(=O)(O)O)c1=O"
  melting point: "207 to 209 °C"
- structure notation: "C#CCn1c(=O)c2c(nc(CCc3ccc(OC)cc3)n2CC2CCCC2)n(CCCCP(=O)(O)O)c1=O"
  melting point: "111 to 113 °C"
- structure notation: "C#CCn1c(=O)c2c(nc(CCc3ccccc3Br)n2C)n(CCCCCP(=O)(O)O)c1=O"
  melting point: "110 to 112 °C"
- structure notation: "C#CCn1c(=O)c2[nH]c(CCc3ccccc3Br)nc2n(CCCCP(=O)(O)O)c1=O"
  melting point: "209 to 212 °C"
- structure notation: "C#CCn1c(=O)c2c(nc(CCc3ccccc3Br)n2CC)n(CCCCCP(=O)(O)O)c1=O"
  melting point: "146 to 148 °C"
- structure notation: "C#CCn1c(=O)c2[nH]c(CCc3ccc(OC)cc3OC)nc2n(CCCCP(=O)(O)O)c1=O"
  melting point: "255 to 257 °C"
